Biological target: T1, MPDZ_10, O75970
T1 sequence (O75970 1624-1722, limits assumed, looked up): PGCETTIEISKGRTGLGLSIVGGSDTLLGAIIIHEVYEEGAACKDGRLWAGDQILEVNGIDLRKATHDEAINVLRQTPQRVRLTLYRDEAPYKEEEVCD
Test: holdup assay
Set-up: key: below the threshold = too weak to quantify, mostly under pKd 3.1 to 4
Settings: plain residues with an end cap or a label only (N-terminal biotin on a linker: ado-ado)
QUANTITY MEASURED: pKd

> print(dat)
                        binder               result
1    SQDPKKPSRV [CBY2, Q8NA61]                  3.7
2  DLLGGGSDSI [TNRC6B, Q9UPQ9]  below the threshold
3    EFKQTSSFLV [JAM1, Q9Y624]  below the threshold
4   PALKNGQYWV [CSPG4, Q6UVK1]  below the threshold
5  FLVTEFNVML [DFNB31, Q9P202]  below the threshold
6  TKEIPNCTSV [SORCS3, Q9UPU3]                 3.83
7   PSVYSRSQYV [CLDN8, P56748]  below the threshold
8   TKDKVQETQI [LRRC4, Q9HBW1]  below the threshold

Prompt: Which pKd reading was recorded for the binder THHRKIHTRV [ZNF599, Q96NL3] ?
Completion: 3.92

Prompt: Which pKd reading was recorded for the binder AKADAQESRL [PLCB2, Q00722] ?
Completion: below the threshold

Prompt: Which pKd reading was recorded for the binder SKQFDKNAYV [CLDN10, P78369] ?
Completion: below the threshold

Prompt: Which pKd reading was recorded for the binder GVHSNDHSVV [LPAR1, Q92633] ?
Completion: below the threshold

Prompt: Which pKd reading was recorded for the binder GTMFLRETSL [GUCY1A2, P33402] ?
Completion: 3.67

Prompt: Which pKd reading was recorded for the binder VKQYADVEGF [HNRNPK, P61978;P61978-2] ?
Completion: below the threshold

Prompt: Which pKd reading was recorded for the binder SGDGKTSVWI [GJC1, P36383] ?
Completion: below the threshold

Prompt: Which pKd reading was recorded for the binder PLATCDETSI [SEMA4F, O95754] ?
Completion: below the threshold
